Test: solubility in water containing 2% ascorbic acid (solution A) and in water containing 2% ascorbic acid and 10% propylene glycol (solution B), with pH of the resulting solutions
Type: physicochemical
Conditions: water with 2% ascorbic acid
RESULT TYPE: solubility

Prompt: // query solubility value for entry "CO[C@H]1/C=C/O[C@@]2(C)Oc3c(C)c(O)c4c(O)c(c(/C=N/N5CCN(C)CC5)c(O)c4c3C2=O)NC(=O)/C(C)=C\C=C\[C@H](C)[C@H](O)[C@@H](C)[C@@H](O)[C@@H](C)[C@H](OC(C)=O)[C@@H]1C"
Completion: < 50 mg/mL

###

Assay: solubility in water containing 2% ascorbic acid (solution A) and in water containing 2% ascorbic acid and 10% propylene glycol (solution B), with pH of the resulting solutions
Format: physicochemical
Conditions: water with 2% ascorbic acid; solution A: water containing 2% ascorbic acid; read-out: solubility
RESULT TYPE: solubility (mg/mL)
Unit mg/mL implied. Number only.

Prompt: // query solubility value for entry "CO[C@H]1/C=C/O[C@@]2(C)Oc3c(C)c(OC(C)=O)c4c(O)c(c(/C=N/N5CCN(C)CC5)c(O)c4c3C2=O)NC(=O)/C(C)=C\C=C\[C@H](C)[C@H](O)[C@@H](C)[C@@H](O)[C@@H](C)[C@H](OC(C)=O)[C@@H]1C"
Completion: 100
